Tested on: Mycobacterium tuberculosis CUH071
assay.method.text: In vitro antimycobacterial evaluation (alamarBlue)
Format: cell-based
assay.context: 168 h, clinical isolate CUH071 with partial INH and PZA resistance, 7 days, read-out: MIC/IC90 M. tuberculosis
Entries and their measured MIC follow.
The reply should be a number in µM, with the unit left off.

molecule	measured.on	MIC [µM]
Cc1cccc(NC(=O)c2ccc3ccccc3n2)c1 [Compound 14b]	Mycobacterium tuberculosis CUH071	469
CC(C)NC(=O)c1ccc2ccccc2n1 [Compound 1, N-Isopropylquinoline-2-carboxamide]	Mycobacterium tuberculosis CUH071	280

Query: What MIC value was documented for this molecule, O=C(NC1CCCCC1)c1ccc2ccccc2n1 [Compound 6, N-Cyclohexylquinoline-2-carboxamide] ?
Result: 125

----------
Test system: Mycobacterium tuberculosis CUH071
assay.method.text: In vitro antimycobacterial evaluation (alamarBlue)
Type: cell-based
assay.context: 168 h, clinical isolate CUH071 with partial INH and PZA resistance, 7 days, read-out: MIC/IC90 M. tuberculosis
observable: MIC (µM)
The reply should be a number in µM, with the unit left off.

For orientation, consider the following solved cases.
compound	measured.on	MIC / µM
CCCCCCCCCCCCNC(=O)c1ccc2ccccc2n1 [Compound 2, N-Dodecylquinoline-2-carboxamide]	Mycobacterium tuberculosis CUH071	367
COc1ccccc1NC(=O)c1ccc2ccccc2c1 [Compound 32a, N-(2-Methoxyphenyl)-2-naphthamide]	Mycobacterium tuberculosis CUH071	901
O=C(c1ccc2ccccc2n1)N1CCCC1 [Compound 3, 2-(Pyrrolidin-1-ylcarbonyl)quinoline]	Mycobacterium tuberculosis CUH071	552
O=C(NC1CCCC1)c1ccc2ccccc2n1 [Compound 5, N-Cyclopentylquinoline-2-carboxamide]	Mycobacterium tuberculosis CUH071	491
O=C(NCCc1ccccc1)c1ccc2ccccc2n1 [Compound 11, N-(2-Phenylethyl)quinoline-2-carboxamide]	Mycobacterium tuberculosis CUH071	109
O=C(c1ccc2ccccc2c1)N1CCCC1 [Compound 22, 1-(2-Naphthoyl)pyrrolidine]	Mycobacterium tuberculosis CUH071	554

Query: What MIC value was documented for this compound, O=C(NC1CCCCCC1)c1ccc2ccccc2n1 [Compound 7, N-Cycloheptylquinoline-2-carboxamide] ?
Result: 111
